Source: ChEMBL document CHEMBL1151224

- Measurement notes: Cytotoxicity against CD mouse macrophages assessed as cell viability at 50 uM by trypan blue exclusion test
- Assay type: cell-based, Macrophage
- Measurement parameters: read-out: Activity
Measured attribute: viability at 50 µM (%)
Give the value in % but do not write % after it.

Q. Returns the measured viability at 50 µM for the input compound. Input: `O=c1c(O)c(-c2ccc(O)c(O)c2)oc2cc(O)cc(O)c12`
A. 101
